Data provenance is PubChem BioAssay.

test protocol: MM1S myeloma cell viability, profiling panel, resazurin fluorescence, basal, 24 h, PK04 Diversity Set (AID 1174);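 note: MM1S multiple myeloma cell line; test concentration not given here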
measurement parameters: higher = more signal, called active from +8 up or from −8 down
Binary classification by z-score, with -0.2 as an inclusive lower bound for T; all other cases are F.

See these solved cases before continuing.
| compound | class |
| --- | --- |
| COCC1=C2[C@@H](CCc3ccccc3)OB(O)C[C@@H]2n2c(=O)n(-c3ccccc3)c(=O)n2C1 | T |
| O=C1[C@H]2[C@H]3[C@H](O)[C@H](O)CC(=NO[C@@H]4O[C@H](CO)[C@@H](O)[C@H](O)[C@H]4O)[C@H]3CC[C@H]2C(=O)N1Cc1ccc2c(c1)OCO2 | T |

Can CCOC(=O)[C@H](Cc1ccccc1)NC(=O)CCC1CC(OC(=O)NCc2ccc3c(c2)OCO3)CC2(CCCC(COC(=O)NCC(c3ccccc3)c3ccccc3)O2)O1 (stereo not given in full) be said to have z-score at or above -0.2? T

====

test protocol: P. aeruginosa biofilm formation inhibitors, primary screen, PAO1 strain, BacTiter-Glo luminescence, LB-PBS (AID 1144)
measurement parameters: 12 h, higher = more signal
Binary classification by z-score, with -0.3 as an inclusive lower bound for 1 (yes); all other cases are 0 (no).

| compound | class |
| --- | --- |
| CCc1cc2c(nc1CC)CCN(CCC(C)=NOC[C@@H](O)[C@H]1O[C@@H]3OC(C)(C)O[C@@H]3[C@H]1O)C2 | 0 (no) |
| CC(C)c1ccc(NN2C(C(O)c3ccc4c(c3)OCO4)C=CC3C(=O)N(c4ccccc4)C(=O)C32)cc1 (stereo not given) | 0 (no) |
| COC(=O)CC1OC1[C@H](C)[C@@H](OC)C(C)C (stereo not given in full) | 1 (yes) |

Can CO[C@H]1COC(=O)CC=C[C@H](C)[C@@H](NS(=O)(=O)c2ccc(C)cc2)COC(=O)CC=C[C@@H]1C be said to have z-score at or above -0.3? 0 (no)

Can CC1CC/C=C\[C@H]2OC34C=CCN(Cn5nnc6ccccc65)C(=O)[C@H]3N(CCO)C(=O)[C@@H]4C2C(=O)O1 (stereo not given in full) be said to have z-score at or above -0.3? 0 (no)

Can CC(=O)OC[C@H]1O[C@@H](ON=C[C@@H](C)[C@H](OCc2ccccc2)C(C)C)[C@H](OC(C)=O)[C@@H](OC(C)=O)[C@@H]1OC(C)=O be said to have z-score at or above -0.3? 0 (no)

Can COC(=O)[C@@H]1N=C(c2ccc(OCCCO)cc2)O[C@@H]1c1ccccc1N=[N+]=[N-] be said to have z-score at or above -0.3? 0 (no)

Can COc1ccccc1CN1C(=O)c2ccccc2[C@@H](C(=O)NCC(F)(F)F)[C@@H]1c1ccc(CO)cc1 be said to have z-score at or above -0.3? 0 (no)

Can O=C(CS)NCCCCCNC(=O)[C@@H]1C[C@@H]2C(=O)N[C@@H](Cc3ccccc3)C(=O)N2[C@@H]1c1ccc(O)cc1 be said to have z-score at or above -0.3? 0 (no)

Can C/C=C\[C@@H](NCc1ccccc1Br)[C@@H](O)Cc1ccccc1 be said to have z-score at or above -0.3? 1 (yes)

Can CCOC(=O)CCN1C(=O)[C@H]2[C@H]3[C@H](O)[C@H](O)CC(=NOCc4ccccc4)[C@@H]3CC[C@H]2C1=O be said to have z-score at or above -0.3? 1 (yes)

Can CCN1C(=O)[C@H]2[C@H]3[C@H](O)[C@H](O)CC(=NOCc4ccccc4)[C@H]3CC[C@H]2C1=O be said to have z-score at or above -0.3? 0 (no)

Can C=CC[C@@H]1C=C[C@H](ON=C2c3cc(OC)ccc3O[C@H](c3cccc(OC)c3)[C@H]2O)[C@@H](CO)O1 be said to have z-score at or above -0.3? 1 (yes)

Can COCCCNC(=O)[C@@]1(C)c2ccccc2C(=O)N(Cc2ccc(OC(F)(F)F)cc2)[C@H]1c1ccc(CO)cc1 be said to have z-score at or above -0.3? 1 (yes)

Can CC(CCN1CCc2nc(-c3ccccc3)c(-c3ccccc3)cc2C1)=NO[C@H](C)c1cn([C@@H]2COC[C@H]2O)nn1 be said to have z-score at or above -0.3? 0 (no)

Can O=C1C[C@@H](O)[C@@H](O)[C@@H]2[C@@H]3C(=O)N(c4cccc(Oc5ccccc5)c4)C(=O)[C@@H]3CC[C@@H]12 be said to have z-score at or above -0.3? 1 (yes)

Can CC(C)NC(=O)[C@@]1(c2ccc([N+](=O)[O-])cc2)CC(=O)N(CC23CC4CC(CC(C4)C2)C3)[C@@H]1c1ccc(CO)cc1I be said to have z-score at or above -0.3? 1 (yes)
